// data source = the kinase profiling compilation of Christmann-Franck et al. (2016)

# MEASUREMENT TARGET: PHKG1 (human)
# EXPERIMENT SUMMARY: radiometric filter-binding kinase assay, Kinase HotSpot
# TEST CONDITIONS: compound 0.5 µM; ATP 10 µM
Measured residual activity accompanies every entry in the list below.
MEASURED PARAMETER: residual activity (%)

1. NC(=O)c1ccc(N(C(N)=O)c2c(F)cccc2F)nc1-c1ccc(F)cc1F
92
2. Nc1nc(Nc2ccc(S(N)(=O)=O)cc2)nn1C(=S)Nc1c(F)cccc1F
26
3. O=C1Nc2cc(Br)ccc2/C1=C1/Nc2ccccc2/C1=N\O
41.8
4. O=c1cc(-c2cccc3c2Sc2ccccc2S3)oc(N2CCOCC2)c1
106
5. C#Cc1cccc(Nc2ncnc3cc(OCCOC)c(OCCOC)cc23)c1
93.2
6. CC(C)[C@H](CO)Nc1nc(Nc2cccc(Cl)c2)c2ncn(C(C)C)c2n1
89.9
7. O=C(NC(NC(=S)Nc1ccc(F)c([N+](=O)[O-])c1)C(Cl)(Cl)Cl)C(c1ccccc1)c1ccccc1 (configuration not stated)
104
8. Nc1n[nH]c2nnc(-c3c(-c4ccccc4)nn4ccccc34)cc12
101
9. O=c1cc(N2CCNCC2)oc2c(-c3ccccc3)cccc12
90.7
10. Oc1ccc(-c2nc(-c3ccc(F)cc3)c(-c3ccncc3)[nH]2)cc1
94.2
11. O=C1Cc2c([nH]c3ccc([N+](=O)[O-])cc23)-c2ccccc2N1
9.22
12. CC(C)n1cnc2c(Nc3cccc(Cl)c3)nc(NCCO)nc21
75.8
13. CCCNC(=O)Nc1ccc(Oc2ncnc3cc(OC)c(OC)cc23)cc1Cl
91.3
14. Clc1ccc(Nc2nnc(Cc3ccncc3)c3ccccc23)cc1
94.2
15. COc1ccc(-c2cnc3c(-c4ccsc4)cnn3c2)cc1
73.2
16. CCN1/C(=C/C(C)=O)Sc2ccc(OC)cc21
89.5
17. O=C1Nc2ccccc2/C1=C\c1c(Cl)[nH]c2ccccc12
85.4
18. Nc1nc(Nc2ccc(S(N)(=O)=O)cc2)nn1C(=O)c1c(F)cccc1F
102
19. COc1cc2nccc(Oc3ccc(NC(=S)NC(=O)c4ccccc4C)cc3)c2cc1OC
89.2
20. CC(C)(C)c1nc2c3ccc(F)cc3c3c(=O)[nH]ccc3c2[nH]1
34.5
21. Cc1ccc(NC(=O)c2ccc(CN3CCN(C)CC3)cc2)cc1Nc1nc(-c2cccnc2)cs1
92.2
22. Cc1cc2ncc(-c3ccccc3)nc2cc1C
97.4

====

# MEASUREMENT TARGET: PRKCG (human)
# EXPERIMENT SUMMARY: radiometric filter-binding kinase assay, Kinase HotSpot
# TEST CONDITIONS: compound 0.5 µM; ATP 10 µM
MEASURED PARAMETER: residual activity (%)

1) Nc1nc(Nc2ccc(S(N)(=O)=O)cc2)nn1C(=S)Nc1c(F)cccc1F
93
2) COc1cc2nccc(Oc3ccc(NC(=S)NC(=O)c4ccccc4C)cc3)c2cc1OC
100
3) Cc1cc2ncc(-c3ccccc3)nc2cc1C
96.9
4) CC(C)[C@H](CO)Nc1nc(Nc2cccc(Cl)c2)c2ncn(C(C)C)c2n1
98.2
5) Nc1nc(Nc2ccc(S(N)(=O)=O)cc2)nn1C(=O)c1c(F)cccc1F
81.3

====

# MEASUREMENT TARGET: UniProt:P78362
# Sequence (P78362 whole entry, looked up): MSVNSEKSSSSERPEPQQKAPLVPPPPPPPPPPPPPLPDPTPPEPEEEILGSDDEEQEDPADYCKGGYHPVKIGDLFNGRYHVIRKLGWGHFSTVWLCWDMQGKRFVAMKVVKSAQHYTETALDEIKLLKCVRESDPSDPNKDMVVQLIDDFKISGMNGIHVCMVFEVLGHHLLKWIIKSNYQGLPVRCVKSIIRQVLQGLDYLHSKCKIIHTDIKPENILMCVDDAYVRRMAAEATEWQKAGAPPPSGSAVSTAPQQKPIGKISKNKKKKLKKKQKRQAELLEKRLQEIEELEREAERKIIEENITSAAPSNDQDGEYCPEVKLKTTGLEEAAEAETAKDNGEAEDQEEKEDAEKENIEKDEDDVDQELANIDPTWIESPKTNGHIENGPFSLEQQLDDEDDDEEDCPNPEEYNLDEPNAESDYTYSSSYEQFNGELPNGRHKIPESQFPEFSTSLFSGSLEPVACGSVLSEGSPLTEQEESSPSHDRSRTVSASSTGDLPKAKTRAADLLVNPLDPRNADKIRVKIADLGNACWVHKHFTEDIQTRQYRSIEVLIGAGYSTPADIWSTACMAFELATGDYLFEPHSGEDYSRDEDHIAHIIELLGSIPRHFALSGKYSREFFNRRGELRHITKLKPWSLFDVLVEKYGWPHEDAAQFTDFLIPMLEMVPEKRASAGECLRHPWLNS
# EXPERIMENT SUMMARY: radiometric filter-binding kinase assay, Kinase HotSpot
# TEST CONDITIONS: compound 0.5 µM; ATP 10 µM
MEASURED PARAMETER: residual activity (%)

1) CC(C)(C)c1nc2c3ccc(F)cc3c3c(=O)[nH]ccc3c2[nH]1
70.5
2) O=C1Nc2cc(Br)ccc2/C1=C1/Nc2ccccc2/C1=N\O
63.9
3) Oc1ccc(-c2nc(-c3ccc(F)cc3)c(-c3ccncc3)[nH]2)cc1
102
4) Nc1n[nH]c2nnc(-c3c(-c4ccccc4)nn4ccccc34)cc12
73.8
5) O=C1Nc2ccccc2/C1=C\c1c(Cl)[nH]c2ccccc12
94.4
6) C#Cc1cccc(Nc2ncnc3cc(OCCOC)c(OCCOC)cc23)c1
101
7) Clc1ccc(Nc2nnc(Cc3ccncc3)c3ccccc23)cc1
96.5
8) COc1cc2ncnc(Nc3ccc(F)c(Cl)c3)c2cc1OCCCN1CCOCC1
99.5
9) CC(C)[C@H](CO)Nc1nc(Nc2cccc(Cl)c2)c2ncn(C(C)C)c2n1
53.6
10) CC(C)n1cnc2c(Nc3cccc(Cl)c3)nc(NCCO)nc21
37.1
11) O=c1cc(N2CCNCC2)oc2c(-c3ccccc3)cccc12
105
12) COc1ccc(-c2cnc3c(-c4ccsc4)cnn3c2)cc1
94.1
13) Nc1nc(Nc2ccc(S(N)(=O)=O)cc2)nn1C(=S)Nc1c(F)cccc1F
17.1
14) COc1cc2nccc(Oc3ccc(NC(=S)NC(=O)c4ccccc4C)cc3)c2cc1OC
93.4
15) O=c1cc(-c2cccc3c2Sc2ccccc2S3)oc(N2CCOCC2)c1
110
16) CS(=O)c1ccc(-c2nc(-c3ccc(F)cc3)c(-c3ccncc3)[nH]2)cc1 (configuration not stated)
102
17) O=C(NC(NC(=S)Nc1ccc(F)c([N+](=O)[O-])c1)C(Cl)(Cl)Cl)C(c1ccccc1)c1ccccc1 (configuration not stated)
103
18) O=C1Cc2c([nH]c3ccc([N+](=O)[O-])cc23)-c2ccccc2N1
109
19) Cc1cc2ncc(-c3ccccc3)nc2cc1C
95.3
20) CCN1/C(=C/C(C)=O)Sc2ccc(OC)cc21
95.8
21) O=C(Nc1ccc(Cl)cc1)c1ccccc1NCc1ccncc1
85.1
22) Cc1ccc(NC(=O)c2ccc(CN3CCN(C)CC3)cc2)cc1Nc1nc(-c2cccnc2)cs1
101

====

# MEASUREMENT TARGET: UniProtKB Q9UF33
# Sequence (Q9UF33 whole entry, looked up): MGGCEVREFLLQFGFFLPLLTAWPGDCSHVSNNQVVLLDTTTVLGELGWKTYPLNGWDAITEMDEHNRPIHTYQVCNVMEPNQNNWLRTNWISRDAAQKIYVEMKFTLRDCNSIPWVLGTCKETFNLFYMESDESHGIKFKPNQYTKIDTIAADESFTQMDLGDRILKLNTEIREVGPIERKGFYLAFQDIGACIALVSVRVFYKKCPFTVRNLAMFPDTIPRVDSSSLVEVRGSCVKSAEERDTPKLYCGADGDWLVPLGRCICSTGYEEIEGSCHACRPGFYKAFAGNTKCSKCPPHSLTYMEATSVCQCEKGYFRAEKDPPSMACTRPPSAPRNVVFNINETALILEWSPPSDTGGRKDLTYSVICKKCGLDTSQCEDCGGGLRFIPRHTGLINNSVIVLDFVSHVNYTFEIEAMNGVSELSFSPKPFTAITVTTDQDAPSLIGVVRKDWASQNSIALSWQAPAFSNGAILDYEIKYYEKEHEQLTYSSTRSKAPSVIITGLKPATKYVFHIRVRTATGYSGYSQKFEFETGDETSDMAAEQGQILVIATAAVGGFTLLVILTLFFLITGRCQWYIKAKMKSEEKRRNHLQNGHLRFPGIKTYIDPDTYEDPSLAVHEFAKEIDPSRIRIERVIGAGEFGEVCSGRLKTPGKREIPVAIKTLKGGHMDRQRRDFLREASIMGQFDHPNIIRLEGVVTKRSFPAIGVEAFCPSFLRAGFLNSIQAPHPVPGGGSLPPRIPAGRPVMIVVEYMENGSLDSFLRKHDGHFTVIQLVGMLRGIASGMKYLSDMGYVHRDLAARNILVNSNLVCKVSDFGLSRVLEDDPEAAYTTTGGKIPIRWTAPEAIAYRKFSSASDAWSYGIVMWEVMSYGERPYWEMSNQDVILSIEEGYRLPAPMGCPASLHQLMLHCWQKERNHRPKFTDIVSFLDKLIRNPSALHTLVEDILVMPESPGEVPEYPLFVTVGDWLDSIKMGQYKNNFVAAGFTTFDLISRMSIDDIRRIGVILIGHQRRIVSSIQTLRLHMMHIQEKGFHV
# EXPERIMENT SUMMARY: radiometric filter-binding kinase assay, Kinase HotSpot
# TEST CONDITIONS: compound 0.5 µM; ATP 10 µM
MEASURED PARAMETER: residual activity (%)

1) Oc1ccc(-c2nc(-c3ccc(F)cc3)c(-c3ccncc3)[nH]2)cc1
57.3
2) CC(C)[C@H](CO)Nc1nc(Nc2cccc(Cl)c2)c2ncn(C(C)C)c2n1
93.8
3) O=C(Nc1ccc(Cl)cc1)c1ccccc1NCc1ccncc1
89.8
4) Clc1ccc(Nc2nnc(Cc3ccncc3)c3ccccc23)cc1
101

====

# MEASUREMENT TARGET: PIM2 (human)
# EXPERIMENT SUMMARY: radiometric filter-binding kinase assay, Kinase HotSpot
# TEST CONDITIONS: compound 0.5 µM; ATP 10 µM
MEASURED PARAMETER: residual activity (%)

1) O=C1Cc2c([nH]c3ccc([N+](=O)[O-])cc23)-c2ccccc2N1
113
2) CS(=O)c1ccc(-c2nc(-c3ccc(F)cc3)c(-c3ccncc3)[nH]2)cc1 (stereo unspecified)
104
3) O=C(NC(NC(=S)Nc1ccc(F)c([N+](=O)[O-])c1)C(Cl)(Cl)Cl)C(c1ccccc1)c1ccccc1 (stereo unspecified)
117
4) CSc1nc(-c2ccc(F)cc2)c(-c2ccnc(NC(C)c3ccccc3)c2)[nH]1 (stereo unspecified)
87.9
5) Oc1ccc(-c2nc(-c3ccc(F)cc3)c(-c3ccncc3)[nH]2)cc1
106
6) Nc1n[nH]c2nnc(-c3c(-c4ccccc4)nn4ccccc34)cc12
91.7
7) CCCNC(=O)Nc1ccc(Oc2ncnc3cc(OC)c(OC)cc23)cc1Cl
101
8) Cc1cc2ncc(-c3ccccc3)nc2cc1C
81
9) CC(C)n1cnc2c(Nc3cccc(Cl)c3)nc(NCCO)nc21
97
10) Nc1nc(Nc2ccc(S(N)(=O)=O)cc2)nn1C(=S)Nc1c(F)cccc1F
106
11) Nc1nc(Nc2ccc(S(N)(=O)=O)cc2)nn1C(=O)c1c(F)cccc1F
113
12) Cc1ccc(NC(=O)c2ccc(CN3CCN(C)CC3)cc2)cc1Nc1nc(-c2cccnc2)cs1
118
13) O=c1cc(N2CCNCC2)oc2c(-c3ccccc3)cccc12
121
14) CCN1/C(=C/C(C)=O)Sc2ccc(OC)cc21
102
15) O=C(Nc1ccc(Cl)cc1)c1ccccc1NCc1ccncc1
99.5
16) COc1ccc(-c2cnc3c(-c4ccsc4)cnn3c2)cc1
105
17) O=C1Nc2ccccc2/C1=C\c1c(Cl)[nH]c2ccccc12
106
18) CC(C)(C)c1nc2c3ccc(F)cc3c3c(=O)[nH]ccc3c2[nH]1
90.8
19) NC(=O)c1ccc(N(C(N)=O)c2c(F)cccc2F)nc1-c1ccc(F)cc1F
98.3
20) O=C1Nc2cc(Br)ccc2/C1=C1/Nc2ccccc2/C1=N\O
95.5
21) COc1cc2ncnc(Nc3ccc(F)c(Cl)c3)c2cc1OCCCN1CCOCC1
96.2

====

# MEASUREMENT TARGET: PHKG2 (human) (UniProt P15735)
# Sequence (P15735 whole entry, looked up): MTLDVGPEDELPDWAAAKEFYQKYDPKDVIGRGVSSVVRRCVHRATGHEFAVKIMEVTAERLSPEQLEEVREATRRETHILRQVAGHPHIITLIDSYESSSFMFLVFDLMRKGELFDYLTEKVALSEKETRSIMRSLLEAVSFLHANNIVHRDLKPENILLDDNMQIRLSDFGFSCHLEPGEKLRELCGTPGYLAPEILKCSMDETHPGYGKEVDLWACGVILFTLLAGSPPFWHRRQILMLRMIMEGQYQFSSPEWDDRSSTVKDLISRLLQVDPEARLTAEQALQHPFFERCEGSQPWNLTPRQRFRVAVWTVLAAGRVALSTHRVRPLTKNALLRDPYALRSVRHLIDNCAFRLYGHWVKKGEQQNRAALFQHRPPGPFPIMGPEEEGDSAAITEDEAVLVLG
# EXPERIMENT SUMMARY: radiometric filter-binding kinase assay, Kinase HotSpot
# TEST CONDITIONS: compound 0.5 µM; ATP 10 µM
MEASURED PARAMETER: residual activity (%)

1) O=C1Nc2ccccc2/C1=C\c1c(Cl)[nH]c2ccccc12
84.2
2) CCCNC(=O)Nc1ccc(Oc2ncnc3cc(OC)c(OC)cc23)cc1Cl
84.1
3) NC(=O)c1ccc(N(C(N)=O)c2c(F)cccc2F)nc1-c1ccc(F)cc1F
93.1
4) O=C1Cc2c([nH]c3ccc([N+](=O)[O-])cc23)-c2ccccc2N1
101
5) COc1ccc(-c2cnc3c(-c4ccsc4)cnn3c2)cc1
92.3
6) Nc1n[nH]c2nnc(-c3c(-c4ccccc4)nn4ccccc34)cc12
82.6
7) COc1cc2ncnc(Nc3ccc(F)c(Cl)c3)c2cc1OCCCN1CCOCC1
93.9
8) CC(C)(C)c1nc2c3ccc(F)cc3c3c(=O)[nH]ccc3c2[nH]1
57.3
9) CS(=O)c1ccc(-c2nc(-c3ccc(F)cc3)c(-c3ccncc3)[nH]2)cc1 (configuration not stated)
102
10) Cc1cc2ncc(-c3ccccc3)nc2cc1C
83.9
11) Nc1nc(Nc2ccc(S(N)(=O)=O)cc2)nn1C(=O)c1c(F)cccc1F
102
12) O=c1cc(N2CCNCC2)oc2c(-c3ccccc3)cccc12
96.9
13) COc1cc2nccc(Oc3ccc(NC(=S)NC(=O)c4ccccc4C)cc3)c2cc1OC
110
14) Cc1ccc(NC(=O)c2ccc(CN3CCN(C)CC3)cc2)cc1Nc1nc(-c2cccnc2)cs1
69.1
15) Nc1nc(Nc2ccc(S(N)(=O)=O)cc2)nn1C(=S)Nc1c(F)cccc1F
95.5
16) Oc1ccc(-c2nc(-c3ccc(F)cc3)c(-c3ccncc3)[nH]2)cc1
94.3
17) CC(C)[C@H](CO)Nc1nc(Nc2cccc(Cl)c2)c2ncn(C(C)C)c2n1
117
18) O=C1Nc2cc(Br)ccc2/C1=C1/Nc2ccccc2/C1=N\O
92.5
19) O=c1cc(-c2cccc3c2Sc2ccccc2S3)oc(N2CCOCC2)c1
98.6
20) O=C(Nc1ccc(Cl)cc1)c1ccccc1NCc1ccncc1
97.1
21) CC(C)n1cnc2c(Nc3cccc(Cl)c3)nc(NCCO)nc21
93.2
22) CSc1nc(-c2ccc(F)cc2)c(-c2ccnc(NC(C)c3ccccc3)c2)[nH]1 (configuration not stated)
125
